// reported pKi per item
- system_under_test: Carbonic anhydrase 9 (Homo sapiens)
pKi: −log10 of the molar value.
property_name: pKi

smiles_notation	number
NS(=O)(=O)c1ccc(-n2cc(COc3ccnc(N4CCN(Cc5ccc(Cl)cc5)CC4)n3)nn2)cc1	7.49
NS(=O)(=O)c1ccc(-n2cc(COc3ccnc(N4CCN(c5ccccn5)CC4)n3)nn2)cc1	7.77
COc1ccccc1N1CCN(c2nc(C)cc(OCc3cn(-c4ccc(S(N)(=O)=O)cc4)nn3)n2)CC1	7.44
Cc1cc(OCc2cn(-c3ccc(S(N)(=O)=O)cc3)nn2)nc(N2CCN(c3ccccn3)CC2)n1	8.04

* * *

Below are compounds with their pKi as measured on Carbonic anhydrase 9 (Homo sapiens, UniProt Q16790).
pKi: −log10 of the molar value.

smiles_notation	system_under_test	pKi
Cc1cc(OCc2cn(-c3ccc(S(N)(=O)=O)cc3)nn2)nc(N2CCN(C(c3ccccc3)c3ccccc3)CC2)n1	Carbonic anhydrase 9 (Homo sapiens, UniProt Q16790)	7.67
Cc1cc(OCc2cn(-c3ccc(S(N)(=O)=O)cc3)nn2)nc(N2CCN(c3ccccc3)CC2)n1	Carbonic anhydrase 9 (Homo sapiens, UniProt Q16790)	7.48
CCN1CCN(c2nc(C)cc(OCc3cn(-c4ccc(S(N)(=O)=O)cc4)nn3)n2)CC1	Carbonic anhydrase 9 (Homo sapiens, UniProt Q16790)	7.79
